- System: ubiquinone binding site of complex I (IQ)
- protocol notes: High-throughput screen: ROS production from ubiquinone binding site of complex I (IQ), isolated skeletal muscle mitochondria
- Type: biochemical, rat
- assay conditions: Table 9; percent change in ROS from DMSO controls
// reported IQ for each item listed
Number, no unit, nothing else.

Take a look at these entries with their results.
CC(C)Cc1ccc(C(C)C(=O)Nc2ccccc2O)cc1 (stereo not drawn) [Compound 5]
−40.0
CCSC1=C(C#N)C2(CCCC2)C(C#N)C(=O)N1 (stereo not drawn) [Compound 2]
−52.5
Cc1ccc(C)c(CN(CCCN(C)C)CCCN(C)C)c1 [Compound 32]
−0.6
COc1ccc(NS(=O)(=O)c2cccc(C(=O)Nc3ccc(C)cc3)c2)cc1 [Compound 11]
−23.8
O=C(O)CSc1cccc(C(=O)Nc2ccc(Br)cc2)c1 [Compound 47]
−0.1

For the compound Cl.OC12CCCCC1C(c1cccc(Cl)c1)NCC2 (stereo not drawn) [Compound 51] , what IQ is on record?
−2.8

Value lookup for IQ; key = O=[N+]([O-])c1ccc(Oc2ccc(S(=O)(=O)Nc3ccc(F)cc3)cc2)cc1 [Compound 84]
−47.7

What value of measured IQ is listed for Cc1ccccc1NS(=O)(=O)c1ccc(C2CCCCC2)cc1 [Compound 9] ?
−31.2

What value of IQ has been recorded for this entry: O=[N+]([O-])c1ccc(Oc2ccc(S(=O)(=O)NC3CCCCC3)cc2)cc1 [Compound 4]
−47.9

* * *

- system: outer ubiquinone binding site of complex III (IIIQO) (Rattus norvegicus, UniProt P00159+P20788)
- Construct: freshly isolated muscle mitochondria were assayed; from tissue; host or cells: rat skeletal muscle mitochondria (Wistar, Harlan Laboratories)
- protocol notes: High-throughput screen: ROS production from outer ubiquinone binding site of complex III (IIIQO)
- Format: biochemical
- assay conditions: Table 8; percent change in ROS from DMSO controls
If the reported IIIQO equals or exceeds -8, assign met. If not, assign not met.

CCCCN(Cc1ccccc1)Cc1cccc(Oc2ccc(Cl)cc2)c1 [Compound 44]
not met
O=C(O)C1CCCCC1C(=O)NC1CCCCCCC1 (stereo not drawn) [Compound 30]
met
Cc1ccc(NS(=O)(=O)c2ccc(C3CCCCC3)cc2)cc1 [Compound 6]
met

Please check the record O=C(Nc1ccccc1[N+](=O)[O-])c1cccc(S(=O)(=O)Nc2ccccc2)c1 [Compound 73] and state if its IIIQO is at or above -8.
met

Check the entry CCCCN(Cc1ccccc1)Cc1cc(Cl)cc(Cl)c1O [Compound 38] : does IIIQO equal or exceed -8?
not met

Quick check, IIIQO >= -8? Cc1cc(C)c(S(=O)(=O)N2CCCC2=O)c(C)c1 [Compound 40]
not met

Determine whether measured IIIQO meets or exceeds -8 for O=[N+]([O-])c1ccc(Oc2ccc(S(=O)(=O)NC3CCCCC3)cc2)cc1 [Compound 4]
met

Answer whether IIIQO of CCSC1=C(C#N)C2(CCCC2)C(C#N)C(=O)N1 (stereo not drawn) [Compound 2] is greater than or equal to -8.
met

Tell me whether IIIQO is at least -8 here: CC1CC(C)(C)N(C=O)c2ccccc21 (stereo not drawn) [Compound 71]
met

* * *

- system: flavin binding site of complex I (IF) (Rattus norvegicus, UniProt Q5XIH3)
- Construct: freshly isolated muscle mitochondria were assayed; from tissue; host or cells: rat skeletal muscle mitochondria (Wistar, Harlan Laboratories)
- Sequence (Q5XIH3 21-464 limits assumed, one chain of several): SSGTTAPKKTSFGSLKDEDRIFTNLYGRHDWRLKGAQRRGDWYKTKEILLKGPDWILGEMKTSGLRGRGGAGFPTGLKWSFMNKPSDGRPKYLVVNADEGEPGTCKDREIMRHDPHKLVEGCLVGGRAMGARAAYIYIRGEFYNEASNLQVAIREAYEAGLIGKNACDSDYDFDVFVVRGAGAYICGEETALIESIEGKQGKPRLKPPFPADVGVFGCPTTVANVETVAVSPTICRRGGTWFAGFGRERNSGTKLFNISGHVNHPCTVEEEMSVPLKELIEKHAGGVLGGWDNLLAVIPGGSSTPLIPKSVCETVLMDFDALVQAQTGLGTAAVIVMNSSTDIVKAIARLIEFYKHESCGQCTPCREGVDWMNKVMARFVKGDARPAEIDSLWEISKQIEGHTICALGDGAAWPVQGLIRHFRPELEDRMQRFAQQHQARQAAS
- protocol notes: High-throughput screen: ROS production from flavin binding site of complex I (IF)
- Format: biochemical
- assay conditions: Table 8; percent change in ROS from DMSO controls; read-out: IF
property label: inhibition at 2.5 µM (%)
A number alone suffices; assume %.

CN(C)c1ccc(C(=C2CN3CCC2CC3)c2ccc(N(C)C)cc2)cc1
49

inhibition at 2.5 µM for CCC1CCCCN1C/C=C/c1ccc(N(C)C)cc1 (stereo not shown) ?
23

Sample Clc1ccc(N2CCN(CC(c3ccccc3)c3ccccc3)CC2)cc1 — what was its inhibition at 2.5 µM?
1

State the recorded inhibition at 2.5 µM for this entry: c1ccc(C2CCC(Nc3ccc4c(c3)OCO4)CC2)cc1 (stereo not shown)
6

Give the measured inhibition at 2.5 µM of Clc1ccc(C(NC2CCN(Cc3ccccc3)CC2)c2ccccc2)cc1 (stereo not shown) .
37

Suppose we examine the molecule COc1ccc(NC(=S)NC(=O)c2ccco2)cc1 ; what inhibition at 2.5 µM value has been reported?
83

Need inhibition at 2.5 µM, item O=C(Nc1nn[nH]n1)C1CCCCC1
34
